0.1 µM (% DMSO) reference
test system: expanded OPCs; assay: cells; conditions: alamarBlue viability of expanded OPCs, compound at 0.1 µM, relative to DMSO control
Just the number in % DMSO, nothing appended.

Worked examples, 5 compounds total:
>  <compound>
CO[C@@]1(NC(=O)Cc2cccs2)C(=O)N2C(C(=O)O)=C(COC(N)=O)CS[C@@H]21 [Cefoxitin]

>  <value-units>
% DMSO

>  <0.1 µM (% DMSO)>
88.0

$$$$
>  <compound>
O=C(c1ccc(OCCN2CCCCC2)cc1)c1c(-c2ccc(O)cc2)sc2cc(O)ccc12 [Raloxifene, reference compound]

>  <value-units>
% DMSO

>  <0.1 µM (% DMSO)>
161.1

$$$$
>  <compound>
Nc1nc2ncc(CNc3ccc(C(=O)N[C@@H](CCC(=O)O)C(=O)O)cc3)nc2c(=O)[nH]1 [Folic acid]

>  <value-units>
% DMSO

>  <0.1 µM (% DMSO)>
110.4

$$$$
>  <compound>
O=C(NCC1CCCCN1)c1cc(OCC(F)(F)F)ccc1OCC(F)(F)F (stereo not drawn) [Flecainide]

>  <value-units>
% DMSO

>  <0.1 µM (% DMSO)>
64.1

$$$$
>  <compound>
CC(=O)/N=c1/sc(S(N)(=O)=O)nn1C [Methazolamide]

>  <value-units>
% DMSO

>  <0.1 µM (% DMSO)>
90.9

$$$$

Please look at the following compound next.
Please provide the recorded 0.1 µM (% DMSO) for COC(=O)[C@H](c1ccccc1Cl)N1CCc2sccc2C1 [Clopidogrel] , tested on expanded OPCs.
103.8

---

test system: expanded OPCs; assay: cells; conditions: alamarBlue viability of expanded OPCs, compound at 0.1 µM, relative to DMSO control
In this section we review reported 0.1 µM (% DMSO) values for a set of compounds.
Give the value in % DMSO but do not write % DMSO after it.

Worked cases, answers included:
>  <compound>
COc1cc([C@@H]2c3cc4c(cc3[C@H](O)[C@H]3COC(=O)[C@H]23)OCO4)cc(OC)c1OC [Podophyllotoxin]

>  <observed-measurement>
14.8

$$$$
>  <compound>
CCc1c(C)[nH]c2c1C(=O)C(CN1CCOCC1)CC2 (stereo not drawn) [Molindone]

>  <observed-measurement>
90.6

$$$$
>  <compound>
Cn1cnc([N+](=O)[O-])c1Sc1ncnc2nc[nH]c12 [Azathioprine]

>  <observed-measurement>
90.4

$$$$
>  <compound>
CN(C)[C@@H]1C(O)=C(C(N)=O)C(=O)[C@@]2(O)C(O)=C3C(=O)c4c(O)cccc4[C@@](C)(O)[C@H]3[C@H](O)[C@@H]12 [Oxytetracycline]

>  <observed-measurement>
98.0

$$$$
>  <compound>
OC(Cn1cncn1)(Cn1cncn1)c1ccc(F)cc1F [Fluconazole]

>  <observed-measurement>
89.6

$$$$
>  <compound>
CC12CC3CC(C)(C1)CC(N)(C3)C2 [Memantine]

>  <observed-measurement>
93.3

$$$$
>  <compound>
CC(=O)OCC[N+](C)(C)C [Acetylcholine]

>  <observed-measurement>
87.6

$$$$
>  <compound>
C=C[C@H]1C[N@@]2CC[C@H]1C[C@H]2[C@H](O)c1ccnc2ccc(OC)cc12 [Quinine]

>  <observed-measurement>
93.4

$$$$

Proceeding to the next compound to report its 0.1 µM (% DMSO).
Entry CC1(C)S[C@@H]2[C@H](NC(=O)COc3ccccc3)C(=O)N2[C@H]1C(=O)O [Penicillin V] : reported 0.1 µM (% DMSO) = ?
96.1

---

As shown below, each of these compounds has a reported activation at 2 µM value.
tested on: acutely dissociated and purified rat OPCs; experiment: Acute OL differentiation assay (MBP expression/cell, immunofluorescent image quantification); assay type: cell-based; details: Rattus norvegicus, test compound at 2 uM; MBP expression relative to quetiapine; NCC library screen, sheet "All OLga data"; read-out: 2 uM (% Quet)
# value in %; strip the unit string

For orientation, consider the following solved cases.
>  <compound>
c1ccc(CC2=NCCN2)cc1 [Tolazoline]

>  <observed-measurement>
-2.4

$$$$
>  <compound>
Cc1cn([C@H]2C[C@H](N=[N+]=[N-])[C@@H](CO)O2)c(=O)[nH]c1=O [Zidovudine]

>  <observed-measurement>
-29.4

$$$$

Value lookup for activation at 2 µM; key = Cc1ccc(N(CC2=NCCN2)c2cccc(O)c2)cc1 [Phentolamine]
-17.9

So what's the measured activation at 2 µM for this one? C[C@H]1c2cccc(O)c2C(=O)C2=C(O)[C@]3(O)C(=O)C(C(N)=O)=C(O)[C@@H](N(C)C)[C@@H]3[C@@H](O)[C@@H]21 [Doxycycline]
4.2

What activation at 2 µM value was documented for this compound, CO[C@H]1/C=C/O[C@@]2(C)Oc3c(C)c(O)c4c(c3C2=O)C2=NC3(CCN(CC(C)C)CC3)NC2=C(NC(=O)/C(C)=C\C=C\[C@H](C)[C@H](O)[C@@H](C)[C@@H](O)[C@@H](C)[C@H](OC(C)=O)[C@@H]1C)C4=O [Rifabutin] ?
-15.6

Using the record for Cc1nccn1CC1CCc2c(c3ccccc3n2C)C1=O (stereo not shown) [Ondansetron] , report its activation at 2 µM.
3

What does the record list as activation at 2 µM for O=C1CC2(CCCC2)CC(=O)N1CCCCN1CCN(c2ncccn2)CC1 [Buspirone] ?
11.2

---

system: expanded OPCs; experiment: cells; conditions: alamarBlue viability of expanded OPCs, compound at 0.1 µM, sheet All Tox data
// returns not satisfied unless 0.1 µM (% DMSO) is strictly below 90 % DMSO, in which case satisfied

Field: example entries. Status: answers known.
>  <compound>
C[C@@H]1C[C@H]2[C@@H]3C[C@H](F)C4=CC(=O)C(Cl)=C[C@]4(C)[C@@]3(F)[C@@H](O)C[C@]2(C)[C@@]1(O)C(=O)CO.O [Halometasone hydrate]

>  <assigned-label>
not satisfied

$$$$
>  <compound>
Nc1c2c(nc3c1CCC3)CCCC2

>  <assigned-label>
satisfied

$$$$
>  <compound>
COc1cccc2c1C(=O)c1c(O)c3c(c(O)c1C2=O)C[C@@](O)(C(=O)CO)C[C@@H]3O[C@H]1C[C@H](N)[C@H](O)[C@H](C)O1

>  <assigned-label>
satisfied

$$$$

Strictly below 90 % DMSO in 0.1 µM (% DMSO)? O=C(O[C@@H]1Cc2c(O)cc(O)cc2O[C@@H]1c1cc(O)c(O)c(O)c1)c1cc(O)c(O)c(O)c1 [Epigallocatechin gallate]
satisfied

For this compound, is 0.1 µM (% DMSO) lower than 90 % DMSO? O=C1c2c(O)cc(O)cc2OC(c2ccc(O)c(O)c2)C1O (stereo not shown)
not satisfied

---

test system: expanded OPCs; assay: cells; details: Rattus norvegicus, 72 h, read-out: 10 µM (% DMSO), alamarBlue viability, NCC library compound at 10 µM, sheet "All Tox data"
Values of viability at 10 µM strictly less than 80% map to satisfied, and values of at least 80% map to not satisfied.

Please state whether viability at 10 µM is below 80% for O=C1CCC(N2C(=O)c3ccccc3C2=O)C(=O)N1 (centres unmarked) [Thalidomide]
not satisfied

Is it true that viability at 10 µM reported for COc1ccc(CC2c3cc(OC)c(OC)cc3CC[N+]2(C)CCC(=O)OCCCCCOC(=O)CC[N+]2(C)CCc3cc(OC)c(OC)cc3C2Cc2ccc(OC)c(OC)c2)cc1OC (centres unmarked) [Atracurium] is less than 80%?
satisfied

Would you kindly verify if viability at 10 µM of CCN(C(C)=O)c1cccc(-c2ccnc3c(C#N)cnn23)c1 [Zaleplon] is strictly less than 80%?
not satisfied

Here's an entry: C=CC1=C(C(=O)O)N2C(=O)[C@@H](NC(=O)/C(=N\OCC(=O)O)c3csc(N)n3)[C@H]2SC1 [Cefixime] . Is its viability at 10 µM below 80%?
satisfied

Hello, is viability at 10 µM of the following molecule strictly smaller than 80%? CCS(=O)(=O)CCn1c([N+](=O)[O-])cnc1C [Tinidazole]
not satisfied

Hello, is viability at 10 µM of the following molecule strictly smaller than 80%? O=C(CCCN1CC=C(n2c(=O)[nH]c3ccccc32)CC1)c1ccc(F)cc1 [Droperidol]
satisfied

---

test system: expanded OPCs; assay: cells; details: alamarBlue viability of expanded OPCs, compound at 1 µM, relative to DMSO control
measured-attribute: 1 µM (% DMSO)
Write the answer as a number in % DMSO, unit excluded.

Answered cases to consult:
>  <molecule>
CN[C@@H]1[C@H](O)[C@H](NC)[C@H]2O[C@@]3(O)C(=O)C[C@@H](C)O[C@H]3O[C@@H]2[C@H]1O

>  <measured-attribute>
1 µM (% DMSO)

>  <observed-measurement>
87.7

$$$$
>  <molecule>
CCC1(c2ccc(N)cc2)CCC(=O)NC1=O (stereo not shown) [Aminoglutethimide]

>  <measured-attribute>
1 µM (% DMSO)

>  <observed-measurement>
89.6

$$$$
>  <molecule>
C/C(=C\C(=O)OCCCCCCCCC(=O)O)C[C@@H]1OC[C@H](C[C@@H]2O[C@H]2[C@@H](C)[C@H](C)O)[C@@H](O)[C@H]1O

>  <measured-attribute>
1 µM (% DMSO)

>  <observed-measurement>
108.1

$$$$

Shifting focus to the molecule that follows.
Enter reported 1 µM (% DMSO) observed with expanded OPCs for "Cc1ccc(N(CC2=NCCN2)c2cccc(O)c2)cc1"
88.6
